- Test Description: probe aCHRDL2 binding to arrayed compounds – biochemical, biotinylated probe, 635/667 nm fluorescence, primary screen (AID 1100)
- Cond: small-molecule microarray, higher = more signal
Would you mind sorting the entries by composite z-score according to these classes? LOW: < 0.4; MID: ≥ 0.4 and < 0.9; HIGH: ≥ 0.9

A selection of reference data follows.
C=C(CCCC)/C(=C/C[C@H](OC(C)=O)c1ccc(OCCO)cc1)c1cnc2ccccc2c1 ... LOW
COCCOC(=O)N1C(=O)[C@@]2(c3ccccc31)[C@H](C(=O)N1CCc3cc(OC)c(OC)cc3C1)[C@H]1C(=O)O[C@H](c3ccccc3)[C@H](c3ccccc3)N1[C@@H]2c1ccc(O)cc1 ... LOW

Classify this molecule: C=C(CCCC)/C(=C/C[C@H](OC(C)=O)c1ccccc1OCCO)c1cnc2ccccc2c1
LOW

Classify this molecule: CCOc1cc(C(O)C2C=CC3C(=O)N(c4ccccc4)C(=O)C3N2Nc2ccc(C(C)C)cc2)ccc1O (stereo not given)
HIGH

Classify this molecule: COC(=O)[C@@]1(Cc2ccc(OC)cc2)[C@H]2c3cc(C(=O)N4CCCC4)n(CCCNc4ncc(C(F)(F)F)cc4Cl)c3C[C@H]2CN1C(=O)c1ccccc1
HIGH

Classify this molecule: O=C1C2C=CC(C(O)C=Cc3ccc([N+](=O)[O-])cc3)N(Nc3ccccc3F)C2C(=O)N1c1ccccc1 (stereo not given)
MID

Classify this molecule: C#CCOc1ccc(C[C@@H](C(=O)OC)N(CC#C)[C@@H](/C=C/C2CC2)[C@H](O)Cc2ccccc2)cc1
MID

Classify this molecule: NCCCCCNC(=O)[C@H]1C[C@H]2C(=O)N3CCC[C@H]3C(=O)N2[C@H]1c1ccc(O)cc1
MID

Where do the numbers come from? From PubChem BioAssay.
